test.summary: Inhibition of baker's yeast alpha-glucosidase preincubated for 15 to 20 mins followed by p-nitrophenyl-alpha-D-glucopyranoside substrate addition measured after 45 to 60 mins by spectrophotometric method
Set-up: species or system Saccharomyces cerevisiae
condition.info: read-out: IC50
Criterion: IC50 strictly under 500 µM. Met: condition met. Not met: condition not met.

1) O=C1CC(C2CCCO2)Nc2ccccc21 (stereo not given) :: condition not met
2) OCCN1C[C@H](O)[C@@H](O)[C@H](O)[C@H]1CO [MIGLITOL] :: condition met
3) CCCCC1CC(=O)c2ccc(F)cc2N1 (stereo not given) :: condition met
4) OCC(CO)N[C@H]1C[C@](O)(CO)[C@@H](O)[C@H](O)[C@H]1O [VOGLIBOSE] :: condition met

Just for reference, ChEMBL document CHEMBL4261528 is where these values come from.
